Source: ChEMBL document CHEMBL3407349

assay: Cmax in athymic CD1 nude mouse at 25 mg/kg, po by LC/MS/MS analysis; type: ADME, organism-based; design: dose 25 mg/kg, route oral; conditions: in vivo
READOUT LABEL: Cmax (ng/mL)

STRUCTURE SMILES STRING	UNIT OF MEASUREMENT	ASSAY VALUE
COc1ccc2c(c1)[C@]1(C[C@H]1c1ccc3c(/C=C/c4ccc(CN5CCOCC5)cc4)n[nH]c3c1)C(=O)N2	ng/mL	3500
O=C1Nc2ccccc2[C@]12C[C@H]2c1ccc2c(/C=C/c3ccc(N4CCNCC4)cc3)n[nH]c2c1	ng/mL	120
CC(C)N1CCC(Oc2ccc(/C=C/c3n[nH]c4cc([C@@H]5C[C@@]56C(=O)Nc5ccccc56)ccc34)cc2)CC1	ng/mL	510

1 = COc1ccc2c(c1)[C@]1(C[C@H]1c1ccc3c(/C=C/c4ccc(CN5CCCCC5)cc4)n[nH]c3c1)C(=O)N2
2 = COc1ccc2c(c1)[C@]1(C[C@H]1c1ccc3c(/C=C/c4ccc([C@H](C)N5CCOCC5)cc4)n[nH]c3c1)C(=O)N2C
-- ask Returns the identifier with the smallest measured Cmax among 1 and 2 . Output the label that corresponds to your choice.
-- reply 1
(1: 510 ng/mL, 2: 3300 ng/mL)

1 = CN(C)Cc1ccc(/C=C/c2n[nH]c3cc([C@@H]4C[C@@]45C(=O)Nc4ccccc45)ccc23)cc1
2 = COc1ccc2c(c1)[C@]1(C[C@H]1c1ccc3c(/C=C/c4ccc(CN(C)C)cc4)n[nH]c3c1)C(=O)N2
3 = O=C1Nc2ccccc2[C@]12C[C@H]2c1ccc2c(/C=C/c3ccc(CN4CC[C@@H](F)C4)cc3)n[nH]c2c1
-- ask List these items ordered by Cmax, big to small. Could you list the labels in the order requested?
-- reply 3, 2, 1

I = Cc1ccc2c(c1)[C@]1(C[C@H]1c1ccc3c(/C=C/c4ccc(CN5CCOCC5)cc4)n[nH]c3c1)C(=O)N2
II = CN1CCN(c2ccc(/C=C/c3n[nH]c4cc([C@@H]5C[C@@]56C(=O)N(C)c5ccccc56)ccc34)cn2)CC1
III = COc1ccc2c(c1)[C@]1(C[C@H]1c1ccc3c(/C=C/c4ccc(N5CCN(C)CC5)nc4)n[nH]c3c1)C(=O)N2
IV = COc1ccc2c(c1)[C@]1(C[C@H]1c1ccc3c(/C=C/c4ccc(CN5[C@H](C)CN(C)C[C@@H]5C)cc4)n[nH]c3c1)C(=O)N2
-- ask I would appreciate it if you could sort these 4 compounds by Cmax, starting from the smallest number. Could you list the labels in the order requested?
-- reply III, II, IV, I
(III: 200 ng/mL, II: 700 ng/mL, IV: 1300 ng/mL, I: 2100 ng/mL)

---

biological target: Cytochrome P450 3A4 (Homo sapiens); assay: Inhibition of CYP3A4 (unknown origin) using BFC as substrate by fluorescence assay
Sequence (P08684 whole entry): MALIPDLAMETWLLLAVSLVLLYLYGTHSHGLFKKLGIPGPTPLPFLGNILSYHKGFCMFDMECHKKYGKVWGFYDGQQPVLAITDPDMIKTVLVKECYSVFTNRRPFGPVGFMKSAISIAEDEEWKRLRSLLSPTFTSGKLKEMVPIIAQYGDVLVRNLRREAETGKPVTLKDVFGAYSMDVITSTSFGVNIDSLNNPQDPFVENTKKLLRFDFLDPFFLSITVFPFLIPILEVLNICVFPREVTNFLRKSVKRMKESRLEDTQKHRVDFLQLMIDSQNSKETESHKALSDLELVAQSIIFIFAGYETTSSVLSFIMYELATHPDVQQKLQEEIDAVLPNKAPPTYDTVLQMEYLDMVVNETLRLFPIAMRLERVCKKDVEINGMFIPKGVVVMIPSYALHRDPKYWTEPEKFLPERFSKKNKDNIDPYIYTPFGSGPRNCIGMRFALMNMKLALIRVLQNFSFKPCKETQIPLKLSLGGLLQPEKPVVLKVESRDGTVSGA
pIC50: −log10 of the molar value.
READOUT LABEL: pIC50

STRUCTURE SMILES STRING	pIC50
COc1ccc2c(c1)[C@]1(C[C@H]1c1ccc3c(/C=C/c4ccc(CN5CCOCC5)cc4)n[nH]c3c1)C(=O)N2C	4.70

1 = COc1ccc2c(c1)[C@]1(C[C@H]1c1ccc3c(/C=C/c4ccc(CN5CCOCC5)cc4)n[nH]c3c1)C(=O)N2
2 = COc1ccc2c(c1)[C@]1(C[C@H]1c1ccc3c(/C=C/c4ccc(N5CCN(C)CC5)nc4)n[nH]c3c1)C(=O)N2
3 = CN1CCN(c2ccc(/C=C/c3n[nH]c4cc([C@@H]5C[C@@]56C(=O)N(C)c5ccccc56)ccc34)cn2)CC1
4 = CN(C)Cc1ccc(/C=C/c2n[nH]c3cc([C@@H]4C[C@@]45C(=O)Nc4ccccc45)ccc23)cc1
-- ask I would appreciate it if you could sort these 4 compounds by pIC50, starting from the smallest number. Could you list the labels in the order requested?
-- reply 2, 4, 1, 3

---

assay: Oral bioavailability in Sprague-Dawley rat at 5 mg/kg; assay type: ADME, organism-based; conditions: in vivo
READOUT LABEL: bioavailability (%)

STRUCTURE SMILES STRING	UNIT OF MEASUREMENT	ASSAY VALUE
COc1ccc2c(c1)[C@]1(C[C@H]1c1ccc3c(/C=C/c4ccc(CN5CCOCC5)cc4)n[nH]c3c1)C(=O)N2	%	22
Cc1ccc2c(c1)[C@]1(C[C@H]1c1ccc3c(/C=C/c4ccc(CN5CCOCC5)cc4)n[nH]c3c1)C(=O)N2	%	28
C[C@@H]1CN(Cc2ccc(/C=C/c3n[nH]c4cc([C@@H]5C[C@@]56C(=O)Nc5ccccc56)ccc34)cc2)C[C@H](C)O1	%	46
COc1ccc2c(c1)[C@]1(C[C@H]1c1ccc3c(/C=C/c4ccc(CN5C[C@@H](C)O[C@@H](C)C5)cc4)n[nH]c3c1)C(=O)N2	%	21
O=C1Nc2ccccc2[C@]12C[C@H]2c1ccc2c(/C=C/c3ccc(CN4CCOCC4)cc3)n[nH]c2c1	%	31
COc1ccc2c(c1)[C@]1(C[C@H]1c1ccc3c(/C=C/c4ccc(CN5CCOCC5)cc4)n[nH]c3c1)C(=O)N2C	%	25

---

# IC50 per entry for UniProtKB P11712
# Sequence (P11712 whole entry): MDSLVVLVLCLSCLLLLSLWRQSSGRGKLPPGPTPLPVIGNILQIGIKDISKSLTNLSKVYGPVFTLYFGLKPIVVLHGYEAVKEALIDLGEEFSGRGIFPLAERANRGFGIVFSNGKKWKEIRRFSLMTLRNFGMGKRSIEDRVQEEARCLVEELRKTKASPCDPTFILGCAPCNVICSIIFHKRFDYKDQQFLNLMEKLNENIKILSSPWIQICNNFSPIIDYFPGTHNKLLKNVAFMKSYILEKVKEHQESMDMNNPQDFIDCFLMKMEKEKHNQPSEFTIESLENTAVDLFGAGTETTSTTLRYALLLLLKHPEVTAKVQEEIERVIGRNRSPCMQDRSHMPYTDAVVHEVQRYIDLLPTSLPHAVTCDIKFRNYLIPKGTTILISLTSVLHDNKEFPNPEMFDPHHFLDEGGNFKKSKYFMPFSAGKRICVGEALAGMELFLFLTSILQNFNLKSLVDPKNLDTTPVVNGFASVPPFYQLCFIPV
READOUT LABEL: IC50 (µM)

MOLECULE	UNIT OF MEASUREMENT	ASSAY VALUE
COc1ccc2c(c1)[C@]1(C[C@H]1c1ccc3c(/C=C/c4ccc(CN5C[C@@H](C)O[C@@H](C)C5)cc4)n[nH]c3c1)C(=O)N2 [OCIFISERTIB]	µM	0.94
O=C1Nc2ccccc2[C@]12C[C@H]2c1ccc2c(/C=C/c3ccc(CN4CC[C@@H](F)C4)cc3)n[nH]c2c1	µM	0.9
COc1ccc2c(c1)[C@]1(C[C@H]1c1ccc3c(/C=C/c4ccc(CN5CCOCC5)cc4)n[nH]c3c1)C(=O)N2C	µM	1

1 = COc1ccc2c(c1)[C@]1(C[C@H]1c1ccc3c(/C=C/c4ccc(CN5C[C@@H](C)O[C@@H](C)C5)cc4)n[nH]c3c1)C(=O)N2C
2 = COc1ccc2c(c1)[C@]1(C[C@H]1c1ccc3c(/C=C/c4ccc(N5CCN(C)CC5)nc4)n[nH]c3c1)C(=O)N2
-- ask Returns the identifier with the smallest measured IC50 among 1 and 2 . Output the label that corresponds to your choice.
-- reply 1

---

target: Cytochrome P450 1A2 (Homo sapiens, UniProt P05177); assay: Inhibition of CYP1A2 (unknown origin) by fluorescence assay; type: ADME
Sequence (P05177 whole entry): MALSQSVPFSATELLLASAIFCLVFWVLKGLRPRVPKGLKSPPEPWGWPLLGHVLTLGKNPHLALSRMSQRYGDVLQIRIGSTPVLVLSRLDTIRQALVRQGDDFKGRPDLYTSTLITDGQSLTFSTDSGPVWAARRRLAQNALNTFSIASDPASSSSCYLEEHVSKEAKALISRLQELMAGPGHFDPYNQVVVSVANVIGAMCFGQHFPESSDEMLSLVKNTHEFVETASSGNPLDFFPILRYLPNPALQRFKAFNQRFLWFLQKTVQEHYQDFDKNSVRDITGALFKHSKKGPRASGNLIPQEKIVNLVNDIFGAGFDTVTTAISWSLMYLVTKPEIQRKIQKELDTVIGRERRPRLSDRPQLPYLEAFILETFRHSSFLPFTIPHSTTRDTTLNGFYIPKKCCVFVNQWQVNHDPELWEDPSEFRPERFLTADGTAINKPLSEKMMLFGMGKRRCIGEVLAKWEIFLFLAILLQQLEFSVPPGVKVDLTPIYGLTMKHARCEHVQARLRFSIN

STRUCTURE SMILES STRING	inhibition (INH)
COc1ccc2c(c1)[C@]1(C[C@H]1c1ccc3c(/C=C/c4ccc(CN5C[C@@H](C)O[C@@H](C)C5)cc4)n[nH]c3c1)C(=O)N2C	Not Active
CC(C)N1CCC(Oc2ccc(/C=C/c3n[nH]c4cc([C@@H]5C[C@@]56C(=O)Nc5ccccc56)ccc34)cc2)CC1	Not Active
COc1ccc2c(c1)[C@]1(C[C@H]1c1ccc3c(/C=C/c4ccc(CN5C[C@@H](C)O[C@@H](C)C5)cc4)n[nH]c3c1)C(=O)N2	Not Active

---

test: Toxicity in po dosed athymic CD-1 nude mouse xenografted with human HCT116 cells administered qd 1-on/3-off schedule up to day 21; format: organism-based, HCT-116; details: CD-1 athymic nude, in vivo
READOUT LABEL: MTD at 21 days (mg/kg)
Enter your answer as a number in mg/kg; do not include the unit.

// sample "C[C@@H]1CN(Cc2ccc(/C=C/c3n[nH]c4cc([C@@H]5C[C@@]56C(=O)Nc5ccccc56)ccc34)cc2)C[C@H](C)O1" , its MTD at 21 days was 36

// sample COc1ccc2c(c1)[C@]1(C[C@H]1c1ccc3c(/C=C/c4ccc(CN5C[C@@H](C)O[C@@H](C)C5)cc4)n[nH]c3c1)C(=O)N2 [OCIFISERTIB] , its MTD at 21 days was 39

// sample "COc1ccc2c(c1)[C@]1(C[C@H]1c1ccc3c(/C=C/c4ccc(CN5CCOCC5)cc4)n[nH]c3c1)C(=O)N2C" , its MTD at 21 days was 39

---

assay: Half life in rat liver microsomes; settings: liver microsomes
READOUT LABEL: half-life (min)

Example entries begin here.
COMPOUND	READOUT LABEL	UNIT OF MEASUREMENT	ASSAY VALUE
Cc1ccc2c(c1)[C@]1(C[C@H]1c1ccc3c(/C=C/c4ccc(CN5CCOCC5)cc4)n[nH]c3c1)C(=O)N2	half-life	min	9
COc1ccc2c(c1)[C@]1(C[C@H]1c1ccc3c(/C=C/c4ccc(CN5CCOCC5)cc4)n[nH]c3c1)C(=O)N2	half-life	min	8.3
COc1ccc2c(c1)[C@]1(C[C@H]1c1ccc3c(/C=C/c4ccc(CN5C[C@@H](C)O[C@@H](C)C5)cc4)n[nH]c3c1)C(=O)N2 [OCIFISERTIB]	half-life	min	53

a = O=C1Nc2ccccc2[C@]12C[C@H]2c1ccc2c(/C=C/c3ccc(CN4CCOCC4)cc3)n[nH]c2c1
b = COc1ccc2c(c1)[C@]1(C[C@H]1c1ccc3c(/C=C/c4ccc(CN5[C@H](C)CN(C)C[C@@H]5C)cc4)n[nH]c3c1)C(=O)N2
-- ask Returns the identifier with the smallest measured half-life among a and b . Output the label that corresponds to your choice.
-- reply a
(a: 7.3 min, b: 49 min)
